- test-description: Antioxidant activity assessed as DPPH free radical scavenging activity incubated for 30 mins in dark condition by spectrophotometric method
- Assay type: physicochemical
API: label(entry) gives condition met if the entry's IC50 is strictly smaller than 20 µg/mL; on equality or larger values it gives condition not met.

Incoming: Hello, I'm reviewing records and need to know if IC50 of "COc1c(-c2cccc(C)c2)c(C)nn1-c1ccccc1" is below 20 µg/mL. Could you check?
Outgoing: condition not met

Incoming: Hello, I'm reviewing records and need to know if IC50 of "COc1ccc(-c2c(C)nn(-c3ccccc3)c2OC)c(OC)c1" is below 20 µg/mL. Could you check?
Outgoing: condition not met

Incoming: Hello, I'm reviewing records and need to know if IC50 of "COc1c(-c2ccsc2)c(C)nn1-c1ccccc1" is below 20 µg/mL. Could you check?
Outgoing: condition not met

Incoming: Hello, I'm reviewing records and need to know if IC50 of "COc1ccc(CNC(=O)c2c(C)nn(-c3ccccc3)c2OC)cc1" is below 20 µg/mL. Could you check?
Outgoing: condition not met

Incoming: Hello, I'm reviewing records and need to know if IC50 of "COc1c(C(=O)NCc2ccc(Cl)cc2)c(C)nn1-c1ccccc1" is below 20 µg/mL. Could you check?
Outgoing: condition met

Incoming: Hello, I'm reviewing records and need to know if IC50 of "O=C1O[C@H]([C@@H](O)CO)C(O)=C1O" is below 20 µg/mL. Could you check?
Outgoing: condition met

Incoming: Hello, I'm reviewing records and need to know if IC50 of "COc1c(C(=O)NCc2ccccc2)c(C)nn1-c1ccccc1" is below 20 µg/mL. Could you check?
Outgoing: condition not met

Incoming: Hello, I'm reviewing records and need to know if IC50 of COc1c(C(=O)NC(C)c2ccccc2)c(C)nn1-c1ccccc1 (configuration not stated) is below 20 µg/mL. Could you check?
Outgoing: condition not met

Incoming: Hello, I'm reviewing records and need to know if IC50 of "CC1=NN(c2ccccc2)C(=O)C1" is below 20 µg/mL. Could you check?
Outgoing: condition not met

Incoming: Hello, I'm reviewing records and need to know if IC50 of "COc1c(-c2ccc3ccccc3c2)c(C)nn1-c1ccccc1" is below 20 µg/mL. Could you check?
Outgoing: condition not met

Incoming: Hello, I'm reviewing records and need to know if IC50 of "COc1c(-c2ccc(F)cc2)c(C)nn1-c1ccccc1" is below 20 µg/mL. Could you check?
Outgoing: condition not met

###

- System: A549
- test-description: Cytotoxicity against human A549 cells assessed as inhibition of cell viability at 25 uM after 48 hrs by MTT assay relative to control
- Type: functional
- assay-setup: A549, 48 h
measured-parameter: inhibition at 25 µM (%)
Write down the numeric answer in % and omit the unit.

Record "COc1c(-c2ccc(C)cc2)c(C)nn1-c1ccccc1" , field inhibition at 25 µM: 44

Record "COc1c(Br)c(C)nn1-c1ccccc1" , field inhibition at 25 µM: 30.8

Record "COCc1ccccc1-c1c(C)nn(-c2ccccc2)c1OC" , field inhibition at 25 µM: 80.5

Record "COc1ccc(-c2c(C)nn(-c3ccccc3)c2OC)cc1" , field inhibition at 25 µM: 70.7

Record "COc1c(C(=O)NCc2ccccc2)c(C)nn1-c1ccccc1" , field inhibition at 25 µM: 46.7

Record "COc1c(-c2ccsc2)c(C)nn1-c1ccccc1" , field inhibition at 25 µM: 40

Record "COc1c(-c2cccc(C)c2)c(C)nn1-c1ccccc1" , field inhibition at 25 µM: 85.9

Record "COc1cc(C)nn1-c1ccccc1" , field inhibition at 25 µM: 55.8

Record COc1c(C(=O)NC(C)c2ccccc2)c(C)nn1-c1ccccc1 (configuration not stated) , field inhibition at 25 µM: 52.7

Record "COc1c(-c2ccc3ccccc3c2)c(C)nn1-c1ccccc1" , field inhibition at 25 µM: 71

Record "COc1c(-c2ccc(C#N)cc2)c(C)nn1-c1ccccc1" , field inhibition at 25 µM: 54.7

Record "COc1c(-c2ccc(O)cc2)c(C)nn1-c1ccccc1" , field inhibition at 25 µM: 55.9
